Assay remarks: Drug uptake in pulmonary tuberculosis patient at 100 […], po once daily for 7 days by liquid chromatography-MS/MS analysis
Format: ADME, organism-based
Parameters: dose 100 mg/kg, route oral
Condition notes: human, in vivo, read-out: Drug uptake
Experimental readout: concentration at 168 h

Req: What value of concentration at 168 h has been recorded for this entry: `COc1nc2ccc(Br)cc2cc1[C@@H](c1ccccc1)[C@@](O)(CCN(C)C)c1cccc2ccccc12`
Resp: 391 ng/mL

###

Assay remarks: Tmax in pulmonary tuberculosis patient at 100 […], po once daily for 7 days by liquid chromatography-MS/MS analysis
Assay type: ADME, organism-based
Design: dose 100 mg/kg, route oral
Condition notes: human, in vivo
Experimental readout: Tmax (h)
Form entry: value (h) — number only.

Req: Request the reported Tmax associated with `COc1nc2ccc(Br)cc2cc1[C@@H](c1ccccc1)[C@@](O)(CCN(C)C)c1cccc2ccccc12`
Resp: 4
